Test system: MARE sequence of SEQ ID NO: 2
Experiment: Luciferase reporter assay, 3xMARE/RBGP-Luc (MARE of SEQ ID NO: 2) transfected into HepG2
Assay type: cell-based, Human
Details: 100 μM heavy metal compound, 18 hours, HepG2, control taken as 1, FIG. 1
Below: a set of entries, each annotated with reported luciferase activity in multiples of untreated control (Fold Activation).
READOUT_NAME: luciferase activity in multiples of untreated control (Fold Activation)

[
  {
    "COMPOUND": "[Cl][Hg][Cl] [mercury chloride]",
    "MEAS_VALUE": 10
  },
  {
    "COMPOUND": "[Cl][Au-]([Cl])([Cl])[Cl].[Na+] [sodium tetrachloroaurate(III)]",
    "MEAS_VALUE": 4.3
  },
  {
    "COMPOUND": "[Cl][Co][Cl] [cobalt chloride]",
    "MEAS_VALUE": 6.9
  },
  {
    "COMPOUND": "O=S(=O)([O-])[O-].[Cd+2] [cadmium sulfate]",
    "MEAS_VALUE": 27.3
  }
]

Attribution: patent US6908761B1
